system: MOLT-4 leukemia; test: NCI-60 one-dose screen, 48 h (100 = growth as untreated, 0 = no growth, -100 = all killed); conditions: 10 µM
Compounds without any hit were thinned out: in the full panel of roughly 83,000, 20% have a hit.
So basically every entry gets a class from its growth, ranges being 0 = under 70%, 1 = from 70% up to 90%, 2 = 90% and over

Worked set:
* CN(C)CCOc1cccc(-c2nc3sccn3c2-c2ccnc(S(C)(=O)=O)n2)c1 | 2
* CC(=O)OC/C=C(/C)C[P+](c1ccccc1)(c1ccccc1)c1ccccc1 | 1
* COc1ccc2c(c1)C(CC(=O)NN)CCC2 (centres undefined) | 1
* Nc1c(Br)cc(Br)c2c1[nH]c(=O)c1ccccc12 | 1
* Nc1ncnc2c1ncn2C1(CO)OCC(O)C(O)C1O (centres undefined) | 2
* CCOC(=O)c1cc(C(=O)c2ccc(F)cc2F)n2ccccc12 | 1
* COc1ccc(-c2nc(-c3nc4ccc(C)cc4[nH]3)cc3c2[nH]c2ccccc23)cc1 | 0

Below: the item to evaluate.
Query: # bin lookup: classify COc1ccc(-c2cc(-c3ccc(OC)c(OC)c3)nc(SCCCC(=O)NO)n2)cc1 by its growth
Result: 0

====

tested on: SK-MEL-28 melanoma; assay: NCI-60 one-dose screen, 48 h; conditions: 10 µM
The panel holds about 83,000 compounds, 20% with a hit somewhere; the sample as a whole holds those more often. Active and inactive are the calls of the source. Rule for the calls: active = growth percent below 10; inactive = the rest.
Give one outcome, nothing more. List: True for active, False for inactive

• Nc1nc(-c2cccnc2)nc2c1sc(=S)n2-c1ccccc1 = False
• CS(=O)(=O)c1nccc(-c2c(-c3cccc(OCCc4ccccc4)c3)nc3sccn23)n1 = False
• CCCCCCCCCCOC(c1ccccc1)c1ccccc1 = False

Query: Short answer needed: outcome of this test for O=S(=O)(Oc1ccc(-c2ccc3sccc3c2)cc1)c1ccc(F)cc1 ?
Result: False

Query: Short answer needed: outcome of this test for Cc1ccc(C2NC(=S)N3C(c4ccc(C)cc4)NC(=S)N23)cc1 (stereo unspecified) ?
Result: False

Query: Short answer needed: outcome of this test for COc1ccc(N=Nc2cc(OC)c(OC)c(OC)c2)cc1 ?
Result: False

Query: Short answer needed: outcome of this test for C=CCNCCN1C(=O)c2ccc3c4c(ccc(c24)C1=O)C(=O)N(CCNCC=C)C3=O ?
Result: True

Query: Short answer needed: outcome of this test for CCN1CC(CCN2CCOCC2)C(C(c2ccccc2)c2ccccc2)C1=O (stereo unspecified) ?
Result: False

Query: Short answer needed: outcome of this test for COC(=O)C1(O)NC(=C(C#N)C#N)C(C#N)=C1C(=O)c1ccc(OC)c(OC)c1 (stereo unspecified) ?
Result: False

Query: Short answer needed: outcome of this test for Cc1ccccc1N1C(=O)c2cc(S(N)(=O)=O)c(Cl)cc2NC1C (stereo unspecified) ?
Result: False

Query: Short answer needed: outcome of this test for Cc1nc2n(c(=O)c1CCN1CCC(c3noc4cc(F)ccc34)CC1)CCC[C@@H]2O ?
Result: False

====

system: EKVX NSCLC; test: NCI-60 one-dose screen, 48 h (100 = growth as untreated, 0 = no growth, -100 = all killed); settings: 10 µM
Compounds without any hit were thinned out: in the full panel of roughly 83,000, 20% have a hit.
experimental_readout: growth (%)
Numbers only, in %.

- O=C1/C(=C/c2ccc3c(c2)OCO3)SC(=S)N1C1c2ccccc2Oc2ccccc21: 96.8
- CCOC(=O)c1cocc1C(=O)O: 103
- COc1cc(C)ccc1Oc1nc(Nc2ccc(N3CCOCC3)cc2)ncc1NC(=O)Nc1cc(C(F)(F)F)cc(C(F)(F)F)c1: 80.7
- CC[C@@H](C(=O)[C@H](C)[C@H](O)[C@@H](C)[C@H]1O[C@H]([C@@H](CC)C(=O)N(CC)CC)CC[C@H]1C)C1O[C@]2(C=C[C@@H](O)[C@]3(CC[C@@](C)([C@H]4CC[C@](O)(CC)[C@H](C)O4)O3)O2)[C@H](C)C[C@@H]1C (some centres not stated): 1.82

# batch size: 3; output growth per entry
1. O=S(=O)(O)c1ccc(Cl)cc1
2. C[C@@H](C[C@H](CCO)c1ccccc1)c1ccc2ccccc2c1
3. O=C(N/N=C/c1c(Cl)cccc1Cl)c1ccccc1Nc1cccc(C(F)(F)F)c1

Result:
1. 105
2. -44
3. 89.8
